Reference source: ChEMBL document CHEMBL1250454

assay: Oral bioavailability in chimpanzee; type: ADME, organism-based, Pan troglodytes; settings: in vivo
Measured bioavailability values are reported for all entries that follow.
measurement kind: bioavailability (%)

smiles string | measurement kind | measurement units | reported measurement
Cc1ccccc1N1CCN(S(=O)(=O)C[C@]23CC[C@H](C[C@@H]2NC(=O)[C@@H](N)CCS(C)(=O)=O)C3(C)C)CC1 | bioavailability | % | 21
COc1cc(OC2CCN(Cc3ccc[n+]([O-])c3C)CC2)ccc1C(=O)N1CCC(N2C(=O)OCc3ccccc32)CC1 | bioavailability | % | 90
O=C(Cn1cc(C(F)(F)F)ccc1=O)NCc1cc2cc(C(=O)N3CCC(N4C(=O)OCc5ccccc54)CC3)ccc2o1 | bioavailability | % | 51
